The following molecules are listed with their measured log10 of IC50 values.
# TARGET_OR_TEST_SYSTEM: 5-hydroxytryptamine receptor 2C (Homo sapiens)
# Sequence (P28335 whole entry): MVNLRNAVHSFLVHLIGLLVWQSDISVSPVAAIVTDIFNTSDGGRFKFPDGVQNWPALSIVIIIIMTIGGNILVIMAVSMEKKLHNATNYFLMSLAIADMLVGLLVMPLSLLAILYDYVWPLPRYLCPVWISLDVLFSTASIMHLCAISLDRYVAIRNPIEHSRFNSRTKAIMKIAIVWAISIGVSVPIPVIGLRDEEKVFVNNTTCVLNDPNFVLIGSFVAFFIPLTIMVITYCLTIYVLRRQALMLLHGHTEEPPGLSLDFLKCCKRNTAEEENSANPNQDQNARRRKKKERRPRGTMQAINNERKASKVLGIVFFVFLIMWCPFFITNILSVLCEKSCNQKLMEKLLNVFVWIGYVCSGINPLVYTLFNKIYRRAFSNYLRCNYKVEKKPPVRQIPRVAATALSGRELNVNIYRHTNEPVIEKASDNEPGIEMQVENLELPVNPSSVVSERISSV
MEASURE_NAME: log10 of IC50 (log10 of the value in nM)

{"MOLECULE": "FC(F)(F)c1cccc(N2CCN(c3nc4ccsc4n4cccc34)CC2)c1", "TARGET_OR_TEST_SYSTEM": "5-hydroxytryptamine receptor 2C (Homo sapiens)", "REPORTED_RESULT": 2.19}
{"MOLECULE": "CN1CCN(c2nc3sc(-c4ccccc4)cc3n3cccc23)CC1", "TARGET_OR_TEST_SYSTEM": "5-hydroxytryptamine receptor 2C (Homo sapiens)", "REPORTED_RESULT": 3.34}
{"MOLECULE": "c1cc2c(N3CCN(Cc4ccc5c(c4)OCO5)CC3)nc3ccsc3n2c1", "TARGET_OR_TEST_SYSTEM": "5-hydroxytryptamine receptor 2C (Homo sapiens)", "REPORTED_RESULT": 2.66}
{"MOLECULE": "c1ccc(CN2CCN(c3nc4scc(-c5ccccc5)c4n4cccc34)CC2)cc1", "TARGET_OR_TEST_SYSTEM": "5-hydroxytryptamine receptor 2C (Homo sapiens)", "REPORTED_RESULT": 3.42}
{"MOLECULE": "CN1CCN(c2nc3cc(-c4ccccc4)sc3n3cccc23)CC1", "TARGET_OR_TEST_SYSTEM": "5-hydroxytryptamine receptor 2C (Homo sapiens)", "REPORTED_RESULT": 4.07}
{"MOLECULE": "c1cc2c(N3CCNCC3)nc3ccsc3n2c1", "TARGET_OR_TEST_SYSTEM": "5-hydroxytryptamine receptor 2C (Homo sapiens)", "REPORTED_RESULT": 1.54}

---

# TARGET_OR_TEST_SYSTEM: Serotonin 3 (5-HT3) receptor (Rattus norvegicus) (UniProt P35563+Q9JJ16)
# MEASUREMENT_DESCRIPTION: Agonistic activity of compound towards 5-hydroxytryptamine 3 receptor in Von Bezold-Jarisch Reflex in rats at 60 (ug/kg), evaluated as change in heart rate
# Assay type: functional

{"MOLECULE": "c1ccc(CN2CCN(c3nc4ccsc4n4cccc34)CC2)cc1", "TARGET_OR_TEST_SYSTEM": "Serotonin 3 (5-HT3) receptor (Rattus norvegicus) (UniProt P35563+Q9JJ16)", "UNIT_INFO": "%", "Change": 0}
{"MOLECULE": "Fc1ccc(CN2CCN(c3nc4sccc4n4cccc34)CC2)cc1", "TARGET_OR_TEST_SYSTEM": "Serotonin 3 (5-HT3) receptor (Rattus norvegicus) (UniProt P35563+Q9JJ16)", "UNIT_INFO": "%", "Change": 0}
{"MOLECULE": "C=CCN1CCN(c2nc3sccc3n3cccc23)CC1", "TARGET_OR_TEST_SYSTEM": "Serotonin 3 (5-HT3) receptor (Rattus norvegicus) (UniProt P35563+Q9JJ16)", "UNIT_INFO": "%", "Change": 30}
{"MOLECULE": "c1cc2c(N3CCNCC3)nc3ccsc3n2c1", "TARGET_OR_TEST_SYSTEM": "Serotonin 3 (5-HT3) receptor (Rattus norvegicus) (UniProt P35563+Q9JJ16)", "UNIT_INFO": "%", "Change": 35}

---

# TARGET_OR_TEST_SYSTEM: 5-hydroxytryptamine receptor 1D (Sus scrofa, UniProt P79400)
# Sequence (P79400 whole entry): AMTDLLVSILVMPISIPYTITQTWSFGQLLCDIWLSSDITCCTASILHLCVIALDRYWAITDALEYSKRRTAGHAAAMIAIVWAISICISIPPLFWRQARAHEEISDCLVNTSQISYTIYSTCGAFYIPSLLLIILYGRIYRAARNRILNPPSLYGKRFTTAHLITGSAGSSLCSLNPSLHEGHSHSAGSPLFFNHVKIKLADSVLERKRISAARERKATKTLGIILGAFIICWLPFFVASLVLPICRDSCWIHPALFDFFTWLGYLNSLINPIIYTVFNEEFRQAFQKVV
pIC50: −log10 of the molar value.
MEASURE_NAME: pIC50

{"COMPOUND": "C[N+]1(Cc2ccccc2)CCN(c2nc3ccsc3n3cccc23)CC1", "TARGET_OR_TEST_SYSTEM": "5-hydroxytryptamine receptor 1D (Sus scrofa, UniProt P79400)", "LIMIT_OPERATOR": "<", "REPORTED_RESULT": 4.00}
{"COMPOUND": "FC(F)(F)c1cccc(N2CCN(c3nc4ccsc4n4cccc34)CC2)c1", "TARGET_OR_TEST_SYSTEM": "5-hydroxytryptamine receptor 1D (Sus scrofa, UniProt P79400)", "LIMIT_OPERATOR": "=", "REPORTED_RESULT": 5.90}
{"COMPOUND": "c1ccc(N2CCN(c3nc4ccsc4n4cccc34)CC2)cc1", "TARGET_OR_TEST_SYSTEM": "5-hydroxytryptamine receptor 1D (Sus scrofa, UniProt P79400)", "LIMIT_OPERATOR": "<", "REPORTED_RESULT": 4.00}
{"COMPOUND": "FC(F)(F)c1cccc(N2CCN(c3nc4scc(-c5ccccc5)c4n4cccc34)CC2)c1", "TARGET_OR_TEST_SYSTEM": "5-hydroxytryptamine receptor 1D (Sus scrofa, UniProt P79400)", "LIMIT_OPERATOR": "=", "REPORTED_RESULT": 4.45}
{"COMPOUND": "CN1CCN(c2nc3sccc3n3cccc23)CC1", "TARGET_OR_TEST_SYSTEM": "5-hydroxytryptamine receptor 1D (Sus scrofa, UniProt P79400)", "LIMIT_OPERATOR": "=", "REPORTED_RESULT": 6.04}
{"COMPOUND": "CN1CCN(c2nc3cc(C(F)(F)F)ccc3n3cccc23)CC1", "TARGET_OR_TEST_SYSTEM": "5-hydroxytryptamine receptor 1D (Sus scrofa, UniProt P79400)", "LIMIT_OPERATOR": "=", "REPORTED_RESULT": 6.91}
{"COMPOUND": "Clc1ccc(C(c2ccccc2)N2CCN(c3nc4ccsc4n4cccc34)CC2)cc1 (stereo not given)", "TARGET_OR_TEST_SYSTEM": "5-hydroxytryptamine receptor 1D (Sus scrofa, UniProt P79400)", "LIMIT_OPERATOR": "<", "REPORTED_RESULT": 4.00}
{"COMPOUND": "c1ccc(-c2cc3nc(N4CCNCC4)c4cccn4c3s2)cc1", "TARGET_OR_TEST_SYSTEM": "5-hydroxytryptamine receptor 1D (Sus scrofa, UniProt P79400)", "LIMIT_OPERATOR": "=", "REPORTED_RESULT": 4.45}
{"COMPOUND": "c1ccc(CN2CCN(c3nc4sccc4n4cccc34)CC2)cc1", "TARGET_OR_TEST_SYSTEM": "5-hydroxytryptamine receptor 1D (Sus scrofa, UniProt P79400)", "LIMIT_OPERATOR": "=", "REPORTED_RESULT": 4.03}
{"COMPOUND": "c1ccc2nc(N3CCNCC3)ccc2c1 [QUIPAZINE]", "TARGET_OR_TEST_SYSTEM": "5-hydroxytryptamine receptor 1D (Sus scrofa, UniProt P79400)", "LIMIT_OPERATOR": "=", "REPORTED_RESULT": 5.43}
{"COMPOUND": "c1ccc(CN2CCN(c3nc4ccsc4n4cccc34)CC2)cc1", "TARGET_OR_TEST_SYSTEM": "5-hydroxytryptamine receptor 1D (Sus scrofa, UniProt P79400)", "LIMIT_OPERATOR": "=", "REPORTED_RESULT": 4.85}
{"COMPOUND": "O=C(CN1CCN(c2nc3ccsc3n3cccc23)CC1)N1CCCC1", "TARGET_OR_TEST_SYSTEM": "5-hydroxytryptamine receptor 1D (Sus scrofa, UniProt P79400)", "LIMIT_OPERATOR": "=", "REPORTED_RESULT": 3.60}
{"COMPOUND": "C1=CCN(c2nc3ccsc3n3cccc23)CC1", "TARGET_OR_TEST_SYSTEM": "5-hydroxytryptamine receptor 1D (Sus scrofa, UniProt P79400)", "LIMIT_OPERATOR": "<", "REPORTED_RESULT": 4.00}
{"COMPOUND": "c1ccc(C2CCN(c3nc4ccsc4n4cccc34)CC2)cc1", "TARGET_OR_TEST_SYSTEM": "5-hydroxytryptamine receptor 1D (Sus scrofa, UniProt P79400)", "LIMIT_OPERATOR": "<", "REPORTED_RESULT": 4.00}
{"COMPOUND": "c1ccc(CN2CCN(c3nc4scc(-c5ccccc5)c4n4cccc34)CC2)cc1", "TARGET_OR_TEST_SYSTEM": "5-hydroxytryptamine receptor 1D (Sus scrofa, UniProt P79400)", "LIMIT_OPERATOR": "=", "REPORTED_RESULT": 4.51}
{"COMPOUND": "CCCN1CCN(c2nc3ccsc3n3cccc23)CC1", "TARGET_OR_TEST_SYSTEM": "5-hydroxytryptamine receptor 1D (Sus scrofa, UniProt P79400)", "LIMIT_OPERATOR": "=", "REPORTED_RESULT": 6.87}
{"COMPOUND": "FC(F)(F)c1cccc(N2CCN(c3nc4sc(-c5ccccc5)cc4n4cccc34)CC2)c1", "TARGET_OR_TEST_SYSTEM": "5-hydroxytryptamine receptor 1D (Sus scrofa, UniProt P79400)", "LIMIT_OPERATOR": "<", "REPORTED_RESULT": 4.00}
{"COMPOUND": "C=CCN1CCN(c2nc3sccc3n3cccc23)CC1", "TARGET_OR_TEST_SYSTEM": "5-hydroxytryptamine receptor 1D (Sus scrofa, UniProt P79400)", "LIMIT_OPERATOR": "=", "REPORTED_RESULT": 6.33}
{"COMPOUND": "O=C(c1ccc(F)cc1)N1CCN(c2nc3ccsc3n3cccc23)CC1", "TARGET_OR_TEST_SYSTEM": "5-hydroxytryptamine receptor 1D (Sus scrofa, UniProt P79400)", "LIMIT_OPERATOR": "=", "REPORTED_RESULT": 3.89}
{"COMPOUND": "Clc1ccc(CN2CCN(c3nc4ccsc4n4cccc34)CC2)c(Cl)c1", "TARGET_OR_TEST_SYSTEM": "5-hydroxytryptamine receptor 1D (Sus scrofa, UniProt P79400)", "LIMIT_OPERATOR": "=", "REPORTED_RESULT": 5.51}
